- target system: T1, orthogonal hCD122 receptor (hoRb), hCD122 with H133D and Y134F (human, UniProt P14784 27-550); also: reference of the scale not given here
- T1 sequence: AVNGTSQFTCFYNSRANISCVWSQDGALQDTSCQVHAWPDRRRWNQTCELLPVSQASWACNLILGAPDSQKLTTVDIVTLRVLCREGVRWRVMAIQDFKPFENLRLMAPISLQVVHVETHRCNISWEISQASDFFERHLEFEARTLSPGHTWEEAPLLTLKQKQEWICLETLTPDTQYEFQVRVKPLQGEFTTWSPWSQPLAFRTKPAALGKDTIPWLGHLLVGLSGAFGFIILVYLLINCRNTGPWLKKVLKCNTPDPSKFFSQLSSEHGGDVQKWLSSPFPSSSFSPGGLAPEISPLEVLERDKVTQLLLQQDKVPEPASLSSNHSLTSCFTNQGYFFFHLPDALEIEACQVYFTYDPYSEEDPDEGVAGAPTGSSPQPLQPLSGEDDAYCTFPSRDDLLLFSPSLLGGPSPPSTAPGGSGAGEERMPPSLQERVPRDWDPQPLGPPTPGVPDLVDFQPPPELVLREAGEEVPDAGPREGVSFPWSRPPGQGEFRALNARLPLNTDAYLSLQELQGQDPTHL
- measurement protocol: cell-based or functional assay
parameter: Relative Proliferation Fold Change 3F8 1:2
Mention the unit after the number when you answer.

Quick check: Relative Proliferation Fold Change 3F8 1:2 of L85V, SQVLKA (ligand) APTSSSTKKTQLQLSQLLVLLKAILNGINNYKNPKLTRMLTFKFYMPKKATELKHLQCLEEELKPLEEVLNLAQSKNFHLRPRDVISNINVIVLELKGSETTFMCEYADETATIVEFLNRWITFCQSIISTLT ?
39.9 fold

And what about the binder SNVLKA (ligand) APTSSSTKKTQLQLSNLLVLLKAILNGINNYKNPKLTRMLTFKFYMPKKATELKHLQCLEEELKPLEEVLNLAQSKNFHLRPRDLISNINVIVLELKGSETTFMCEYADETATIVEFLNRWITFCQSIISTLT ?
9.2 fold

And what about the binder K97Q, SQVLKA (ligand) APTSSSTKKTQLQLSQLLVLLKAILNGINNYKNPKLTRMLTFKFYMPKKATELKHLQCLEEELKPLEEVLNLAQSKNFHLRPRDLISNINVIVLELQGSETTFMCEYADETATIVEFLNRWITFCQSIISTLT ?
91.6 fold

And what about the binder SQVLGA (ligand) APTSSSTKKTQLQLSQLLVLLGAILNGINNYKNPKLTRMLTFKFYMPKKATELKHLQCLEEELKPLEEVLNLAQSKNFHLRPRDLISNINVIVLELKGSETTFMCEYADETATIVEFLNRWITFCQSIISTLT ?
74.5 fold

And what about the binder Q126M, SQVLKA (ligand) APTSSSTKKTQLQLSQLLVLLKAILNGINNYKNPKLTRMLTFKFYMPKKATELKHLQCLEEELKPLEEVLNLAQSKNFHLRPRDLISNINVIVLELKGSETTFMCEYADETATIVEFLNRWITFCMSIISTLT ?
154 fold

And what about the binder SQVLSA (ligand) APTSSSTKKTQLQLSQLLVLLSAILNGINNYKNPKLTRMLTFKFYMPKKATELKHLQCLEEELKPLEEVLNLAQSKNFHLRPRDLISNINVIVLELKGSETTFMCEYADETATIVEFLNRWITFCQSIISTLT ?
117 fold

And what about the binder L18Y, SQVLKA (ligand) APTSSSTKKTQLQLSQLYVLLKAILNGINNYKNPKLTRMLTFKFYMPKKATELKHLQCLEEELKPLEEVLNLAQSKNFHLRPRDLISNINVIVLELKGSETTFMCEYADETATIVEFLNRWITFCQSIISTLT ?
214 fold

And what about the binder Q74N, SQVLKA (ligand) APTSSSTKKTQLQLSQLLVLLKAILNGINNYKNPKLTRMLTFKFYMPKKATELKHLQCLEEELKPLEEVLNLANSKNFHLRPRDLISNINVIVLELKGSETTFMCEYADETATIVEFLNRWITFCQSIISTLT ?
116 fold

And what about the binder SQILKA (ligand) APTSSSTKKTQLQLSQLLILLKAILNGINNYKNPKLTRMLTFKFYMPKKATELKHLQCLEEELKPLEEVLNLAQSKNFHLRPRDLISNINVIVLELKGSETTFMCEYADETATIVEFLNRWITFCQSIISTLT ?
45.8 fold

And what about the binder SQVLAA (ligand) APTSSSTKKTQLQLSQLLVLLAAILNGINNYKNPKLTRMLTFKFYMPKKATELKHLQCLEEELKPLEEVLNLAQSKNFHLRPRDLISNINVIVLELKGSETTFMCEYADETATIVEFLNRWITFCQSIISTLT ?
69.2 fold

And what about the binder G27S, SQVLKA (ligand) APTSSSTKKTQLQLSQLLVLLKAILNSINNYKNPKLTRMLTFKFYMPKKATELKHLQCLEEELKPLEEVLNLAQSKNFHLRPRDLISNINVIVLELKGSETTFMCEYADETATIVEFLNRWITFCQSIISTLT ?
94 fold

And what about the binder SQVLHA (ligand) APTSSSTKKTQLQLSQLLVLLHAILNGINNYKNPKLTRMLTFKFYMPKKATELKHLQCLEEELKPLEEVLNLAQSKNFHLRPRDLISNINVIVLELKGSETTFMCEYADETATIVEFLNRWITFCQSIISTLT ?
80.2 fold

And what about the binder D109C, SQVLKA (ligand) APTSSSTKKTQLQLSQLLVLLKAILNGINNYKNPKLTRMLTFKFYMPKKATELKHLQCLEEELKPLEEVLNLAQSKNFHLRPRDLISNINVIVLELKGSETTFMCEYACETATIVEFLNRWITFCQSIISTLT ?
84 fold

And what about the binder L18K, SQVLKA (ligand) APTSSSTKKTQLQLSQLKVLLKAILNGINNYKNPKLTRMLTFKFYMPKKATELKHLQCLEEELKPLEEVLNLAQSKNFHLRPRDLISNINVIVLELKGSETTFMCEYADETATIVEFLNRWITFCQSIISTLT ?
162 fold

Taken from patent US20210196796A1.
